The following compounds are shown together with reported IC50 values.
Test system: Microsporum canis B68128
Assay: Antifungal activity in vitro (resazurin susceptibility screen), Inf. B
Format: cell-based
Conditions: Microsporum canis, B68128, Microsporum canis B68128; 27 °C, 9 days, resa time 24 hours; read-out: Inf. B pIC50 (converted)

Please review the entries below; each comes with its answer.
>>> print(df.to_string())
                                   compound  endpoint_value
0  CC(=O)c1ccc(C2=NCc3c(F)cc(F)cc3-n3cccc32)cc1 [Compound 24]            2 µM
1  CC(=O)c1ccc(C2NCc3ccc(Cl)cc3-n3cccc32)cc1 (centres unmarked) [Compound 8]       > 63.1 µM
2  CC(=O)c1ccc(C2NCc3cc(Cl)cc(Cl)c3-n3cccc32)cc1.Cl (centres unmarked) [Compound 14]         2.51 µM
3  CC(=O)c1ccc(C2=NCc3c(Cl)ccc(Cl)c3-n3cccc32)cc1 [Compound 25]         3.16 µM

Please examine the following record next.
Per the record, CS(=O)(=O)c1ccc(C2=NCc3c(F)cccc3-n3cccc32)cc1 [Compound 29] has IC50 of 10 µM

---

Target: Cytochrome P450 2C8 (Homo sapiens)
Construct: tissue BD Gentest; host or cells: human liver microsomes
Sequence (P10632 1-490): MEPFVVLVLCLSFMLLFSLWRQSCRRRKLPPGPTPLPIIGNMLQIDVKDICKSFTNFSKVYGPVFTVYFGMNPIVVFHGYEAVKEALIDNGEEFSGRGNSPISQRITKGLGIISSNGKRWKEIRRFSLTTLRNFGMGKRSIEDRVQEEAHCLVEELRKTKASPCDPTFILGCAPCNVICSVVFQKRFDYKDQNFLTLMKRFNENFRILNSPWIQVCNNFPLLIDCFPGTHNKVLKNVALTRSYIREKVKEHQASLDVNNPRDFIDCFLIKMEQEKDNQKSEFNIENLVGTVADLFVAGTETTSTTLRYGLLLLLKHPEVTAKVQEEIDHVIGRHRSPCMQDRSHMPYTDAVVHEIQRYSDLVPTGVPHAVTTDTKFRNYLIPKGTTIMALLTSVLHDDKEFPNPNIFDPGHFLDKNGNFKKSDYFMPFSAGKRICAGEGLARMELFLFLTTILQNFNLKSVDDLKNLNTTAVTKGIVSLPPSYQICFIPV
Experiment: Human liver microsomal cytochrome P450 cocktail inhibition assay, Protocol C
Assay type: in vitro ADME
Conditions: human liver microsomes 0.2 mg/ml; probe amodiaquine 2 microM; read-out: 2C8_Amod pIC50 (converted)
MEASUREMENT LABEL: IC50

The cases that follow already have their IC50 on record.
>>> df
                                   molecule  measurement_label  endpoint_value
0  CS(=O)(=O)c1ccc(C2=NCc3c(Cl)cccc3-n3cccc32)cc1 [drawing 93]               IC50         > 10 µM
1  CC(O)c1ccc(C2NCc3c(Cl)cccc3-n3cccc32)cc1 (stereo not drawn) [drawing 97]               IC50         > 10 µM

Consider now this further molecule.
Result for CC(=O)c1ccc(C2NCc3ccc(Cl)cc3-n3cccc32)cc1 (stereo not drawn) [drawing 101] , tested on Cytochrome P450 2C8 (Homo sapiens), IC50: 7.94 µM
